Test system: HT-22
assay_method_text: Cytotoxicity in mouse HT22 cells assessed as reduction in cell viability at 30 to 100 uM incubated for 24 hrs by MTT assay
Assay type: cell-based
stated_conditions: ht-22, 24 h
measurement_name: Activity

Solved cases (5 shown):
molecule	reported
CCN(C)C(=O)Oc1cccc(NC(=O)CCCCC2CCSS2)c1 (stereo unspecified)	Non-Toxic
CCN(C)C(=O)Oc1cccc(CNC(=O)c2cc(O)c(O)c(O)c2)c1	Non-Toxic
CCN(C)C(=O)Oc1cccc(CNC(=O)CCCCC2CCSS2)c1 (stereo unspecified)	Non-Toxic
CCN(C)C(=O)Oc1cccc(CCNC(=O)CCCCC2CCSS2)c1 (stereo unspecified)	Non-Toxic
CCN(C)C(=O)Oc1cccc(NC(=O)c2cc(=O)c3ccccc3o2)c1	Toxic

Q) Field request: Activity | item: CCN(C)C(=O)Oc1cccc(CCNC(=O)c2cc(=O)c3ccccc3o2)c1
A) Toxic

* * *

assayed_target: Cholinesterase (Homo sapiens)
Sequence (P06276 whole entry): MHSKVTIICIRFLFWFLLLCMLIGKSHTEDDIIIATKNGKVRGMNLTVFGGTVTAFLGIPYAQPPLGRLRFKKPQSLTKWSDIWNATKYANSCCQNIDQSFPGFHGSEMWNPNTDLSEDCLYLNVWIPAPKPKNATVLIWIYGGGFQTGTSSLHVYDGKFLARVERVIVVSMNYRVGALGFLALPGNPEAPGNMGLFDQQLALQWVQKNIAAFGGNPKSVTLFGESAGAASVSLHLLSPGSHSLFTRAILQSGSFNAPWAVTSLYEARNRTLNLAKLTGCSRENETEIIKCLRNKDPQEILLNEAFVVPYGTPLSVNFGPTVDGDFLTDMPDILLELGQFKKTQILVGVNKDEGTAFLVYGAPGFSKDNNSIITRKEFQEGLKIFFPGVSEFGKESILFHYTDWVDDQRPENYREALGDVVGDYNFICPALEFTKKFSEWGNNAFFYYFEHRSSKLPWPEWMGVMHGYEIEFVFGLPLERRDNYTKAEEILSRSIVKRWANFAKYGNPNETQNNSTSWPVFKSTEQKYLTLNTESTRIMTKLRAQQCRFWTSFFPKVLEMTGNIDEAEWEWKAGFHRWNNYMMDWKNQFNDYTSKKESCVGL
assay_method_text: Inhibition of BuChE (unknown origin) at 500 nM pre-incubated for 20 mins before S-Butyrylthiocholine iodide substrate addition by Ellman reagent based spectrophotometry
measurement_name: inhibition
# output: number + unit

Q) Field request: inhibition | item: CCN(C)C(=O)Oc1cccc([C@H](C)N(C)C)c1
A) 30.1%

Q) Do the same for CCN(C)C(=O)Oc1cccc(NC(=O)CCCCC2CCSS2)c1 (stereo not given) please
A) 77.4%

Q) Do the same for CCN(C)C(=O)Oc1cccc(CCNC(=O)c2cc(=O)c3ccccc3o2)c1 please
A) 49.1%

Q) Do the same for CCN(C)C(=O)Oc1cccc(CNC(=O)c2cc(O)c(O)c(O)c2)c1 please
A) 2.39%

Q) Do the same for CCN(C)C(=O)Oc1cccc(CNC(=O)CCCCC2CCSS2)c1 (stereo not given) please
A) 77.3%

Q) Do the same for CCN(C)C(=O)Oc1cccc(CNC(=O)c2cc(=O)c3ccccc3o2)c1 please
A) 37.1%

Q) Do the same for CCN(C)C(=O)Oc1cccc(NC(=O)c2cc(=O)c3ccccc3o2)c1 please
A) 53.8%

Q) Do the same for CCN(C)C(=O)Oc1cccc(CCNC(=O)c2cc(O)c(O)c(O)c2)c1 please
A) 58.8%

Q) Do the same for CCN(C)C(=O)Oc1cccc(NC(=O)c2cc(O)c(O)c(O)c2)c1 please
A) 7.98%

Q) Do the same for CCN(C)C(=O)Oc1cccc(CCNC(=O)CCCCC2CCSS2)c1 (stereo not given) please
A) 76.7%
